Measured amyloid nucleation score of individual entries
# experiment_description: amyloid nucleation score (Sup35N fusion, yeast selection) (log enrichment); library NNK2; higher = more nucleation; inactive = no reads after selection;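 note: zero at mode of non-aggregating sequences after 7 days selection at 30°C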
I'd appreciate a reply containing only the number, no unit.

Answered examples (3):
substance	amyloid nucleation score
MEFDVLSIFQRGSRAGAK	-1.3
RVYNITILYRCLKRRLS	0.878
SMVVGMGSCPNVTRGAGLKR	1.06

IN: Requested read-out: amyloid nucleation score. Entry: "LVSRCDDACGIQTGNMV"
OUT: 0.043

IN: I would be grateful if you could share the reported amyloid nucleation score for "TDCFQFS" .
OUT: 0.713

IN: Find the recorded amyloid nucleation score belonging to "FYPSWNLYRVRGQPYLNRVR" and report it.
OUT: -0.352

IN: Name the recorded amyloid nucleation score for "DYMNGDKSKKGDYWIMSVNS" .
OUT: 0.154

IN: I am curious: what amyloid nucleation score value has been reported for "CELEGWSVGSRVNLLILIR" ?
OUT: -0.213

IN: I would be grateful if you could share the reported amyloid nucleation score for "QYIPMSLNCQLQYGSHAGQE" .
OUT: -0.216

IN: Any idea what amyloid nucleation score was measured for "KVVIYGCSS" ?
OUT: -0.183

IN: What does the data say about its amyloid nucleation score? Entry: "NTELSVMPGRLSNFIKLNVT"
OUT: -0.248

IN: Find the recorded amyloid nucleation score belonging to "MDYTFSLQTMCGVWYCYWGR" and report it.
OUT: 1.31

IN: Tell me the measured amyloid nucleation score of "IFMRVHLSMIVELKTHPDI" , please.
OUT: 3.2

IN: May I ask what amyloid nucleation score has been recorded for "MNELVIIGILMCCTDF" ?
OUT: 8.48
